Biological target: farnesyl transferase (Homo sapiens, UniProt P49354+P49356)
Experiment: Farnesyl transferase inhibition, [3H]-farnesylation of biotinylated K-ras C-terminal peptide (SPA assay)
Type: biochemical
Details: In vitro inhibitory activity (K-Ras) IC50, K-Ras substrate; 60 min at 37° C.; mean of two IC50 values
attribute.measured: pIC50
Convention used: pIC50 is expressed as -log10 of the molar concentration.

Below, 2 molecules whose answers are already recorded.
INSERT INTO measurements (molecule, target_or_system, value_reported) VALUES
  ('C=C(C(=O)N1C[C@@H]2[C@@]3(c4ccsc4)CC[C@@H](c4ccccc43)[C@]2(C(=O)O)C1)c1ccccc1OC (racemic)', 'farnesyl transferase (Homo sapiens, UniProt P49354+P49356)', 6.86),
  ('COc1ccccc1CC(=O)N1C[C@H]2[C@@]3(c4ccc(F)cc4)CC[C@H](c4ccccc43)[C@@]2(C(=O)O)C1 (relative stereo)', 'farnesyl transferase (Homo sapiens, UniProt P49354+P49356)', 7.00);

Bench note: what pIC50 did C=C(C(=O)N1C[C@H]2[C@@]3(c4ccc(C)s4)CC[C@@H](c4ccccc43)[C@]2(C(=O)O)C1)c1ccccc1OC (racemic) show?
7.02
